- Test system: SK-MEL-2 melanoma
- Method summary: NCI tumour cell line growth inhibition, 48 h
Observation type: TGI (µM)
Output spec: scalar in µM, unitless text.

Please provide the recorded TGI for `O=c1cc(-c2ccccc2)oc2cc(OCc3cn(Cc4ccc(F)cc4)nn3)cc(O)c12` , tested on SK-MEL-2 melanoma. 36.1

Please provide the recorded TGI for `COc1cccc2c1[C@H](OC)[C@]13O[C@@]1(C2=O)[C@H](O)[C@H](C)[C@@](O)(C(=O)[C@@H]1O[C@H]1C)[C@@H]3O` , tested on SK-MEL-2 melanoma. 0.384

Please provide the recorded TGI for `CCN(CCc1ccc(F)cc1)c1ccc(CO)c(Cl)c1` , tested on SK-MEL-2 melanoma. 21.1

Please provide the recorded TGI for O=C(Cc1ccccc1)NN1C(=O)C(Cl)C1c1cc(Br)cc(Br)c1O (stereo not given) , tested on SK-MEL-2 melanoma. 36.6

----------
Please respond with reported TGI for every item in the list.
- Test system: OVCAR-8 ovarian
- Method summary: NCI tumour cell line growth inhibition, 48 h

Requested field: TGI. Item: CCCC(=O)C(CC)/C(CCC(=O)N(Cc1ccccc1)Cc1ccccc1)=N/NC(=O)C[N+](C)(C)C (centres undefined) > 100 µM

Requested field: TGI. Item: COc1cc([C@@H]2c3cc4c(cc3[C@@H](NC(=O)c3ccc(C(C)=O)cc3)C3COC(=O)[C@@H]32)OCO4)cc(OC)c1O (some centres undefined) 13.7 µM

Requested field: TGI. Item: `CC1=CC(=O)c2cccc(O)c2C1=O` 15.4 µM

Requested field: TGI. Item: `Cn1cc(C=C(C#N)C#N)c(=O)n(C)c1=O` > 100 µM

Requested field: TGI. Item: `COc1cccc2c1[C@H](OC)[C@]13O[C@@]1(C2=O)[C@H](O)[C@H](C)[C@@](O)(C(=O)[C@@H]1O[C@H]1C)[C@@H]3O` 0.61 µM

Requested field: TGI. Item: C#CCCCCC#CC1CCCC1C1=CC(=O)c2ccccc21 (centres undefined) 3.52 µM

Requested field: TGI. Item: CCOC(=O)C1C(=O)CC(C)(O)C(C(=O)OCC)C1c1ccc(O)c(OC)c1 (centres undefined) > 100 µM

Requested field: TGI. Item: `COc1ccc(-n2nc(C)c3c(Nc4ccc(NC(=O)Nc5cc(C(F)(F)F)ccc5F)cc4)ncnc32)cc1` 6.16 µM

Requested field: TGI. Item: `CCC(=O)[O-].CCC(=O)[O-].N.N.N.N.[Co+3].[O-][Cl+3]([O-])([O-])[O-]` > 100 µM

Requested field: TGI. Item: `COc1ccc2c(CCNS(=O)(=O)c3ccccc3)c(C(C)=O)[nH]c2c1[N+](=O)[O-]` > 100 µM

Requested field: TGI. Item: `O=c1c2ccccc2c(C=NCCNCCO)c2oc3ccccc3n12` 19.7 µM

Requested field: TGI. Item: `C/C=C1/CN2CC[C@@H]3c4ccccc4N4[C@H](C(=O)OC)[C@H]1C[C@H]2[C@]34/C=C/C1=COC[C@@H]2[C@H]1C[C@H]1c3c(c4ccccc4n3C)C[C@@H]2N1C` 8.04 µM

Requested field: TGI. Item: `CNNC1=NS(=O)(=O)c2cc(C(=O)OC)c(Cl)cc2S1` > 10 µM

Requested field: TGI. Item: `COc1ccc(-n2c(C)nc3ccc(N=Cc4ccccc4)cc3c2=O)cc1` > 100 µM

Requested field: TGI. Item: `S=C(NNC1=NCCCCN1)Nc1ccccc1` > 100 µM

Requested field: TGI. Item: `CN(C)CCCNC(=O)c1cc(NC(=O)CCCn2c3ccccc3c3ccccc32)cn1C` > 100 µM

Requested field: TGI. Item: `COc1cc2c(cc1OC)[C@]1(O)C(=O)c3ccc4c(c3O[C@@H]1CO2)C[C@H](C(C)(C)O)O4` > 100 µM

Requested field: TGI. Item: `CC(=O)c1ccc(NCn2nc(-c3ccccc3O)oc2=S)cc1` > 100 µM

Requested field: TGI. Item: `O=C(CN1CCOCC1)NC1=Nc2ncccc2C(=O)NN1` > 10 µM

Values from PubChem BioAssay (NCI)
